Entries and their measured MIC follow.
- Tested on: Pseudomonas aeruginosa
- Assay Protocol: Antibacterial activity against Pseudomonas aeruginosa ATCC 27853 after 18 to 24 hrs by twofold serial dilution method
- Type: functional
API: value field is a number in µg/mL; no unit string.

* CCO/N=C1\CN(c2c(F)cc3c(=O)c(C(=O)O)cn(C4CC4)c3c2OC(F)F)CC1/C(N)=N\OCC (stereo unspecified) | 128

(Q) Suppose we examine the compound CCO/N=C1\CN(c2c(F)cc3c(=O)c(C(=O)O)cn(C4CC4)c3c2OC(F)F)CC1/C(N)=N\O (stereo unspecified) ; what MIC value has been reported?
(A) 128

(Q) Same for CCO/N=C1\CN(c2c(F)cc3c(=O)c(C(=O)O)cn(CCF)c3c2F)CC1/C(N)=N\OCC (stereo unspecified)
(A) 128

----------
- System: Staphylococcus epidermidis
- Assay Protocol: Antibacterial activity against methicillin-resistant Staphylococcus epidermidis 09-3 after 18 to 24 hrs by twofold serial dilution method
- Assay type: functional
Entries and their measured MIC follow.
API: value field is a number in µg/mL; no unit string.

These recorded examples may help you get a feel for the data.
- CCn1cc(C(=O)O)c(=O)c2cc(F)c(N3C/C(=N\OC)C(/C(N)=N\OC)C3)c(F)c21 (stereo not drawn): 0.25
- CO/N=C1\CN(c2c(F)cc3c(=O)c(C(=O)O)cn(CCF)c3c2F)CC1/C(N)=N\OC (stereo not drawn): 0.125
- CO/N=C1\CN(c2nc3c(cc2F)c(=O)c(C(=O)O)cn3C2CC2)CC1/C(N)=N\O (stereo not drawn): 1
- CO/N=C1\CN(c2nc3c(cc2F)c(=O)c(C(=O)O)cn3C2CC2)CC1/C(N)=N\OC (stereo not drawn): 0.25
- CCO/N=C1\CN(c2nc3c(cc2F)c(=O)c(C(=O)O)cn3C2CC2)CC1/C(N)=N\OCC (stereo not drawn): 8

(Q) Suppose we examine the compound CCO/N=C1\CN(c2nc3c(cc2F)c(=O)c(C(=O)O)cn3-c2ccc(F)cc2F)CC1/C(N)=N\OC (stereo not drawn) ; what MIC value has been reported?
(A) 0.25

(Q) Same for CO/N=C1\CN(c2c(F)cc3c(=O)c(C(=O)O)cn(C4CC4)c3c2OC(F)F)CC1/C(N)=N\O (stereo not drawn)
(A) 0.25

(Q) Same for CO/N=C1\CN(c2nc3c(cc2F)c(=O)c(C(=O)O)cn3C2CC2)CC1CN (stereo not drawn)
(A) 0.06

----------
Entries and their measured MIC follow.
- Test system: Staphylococcus epidermidis
- Assay Protocol: Antibacterial activity against methicillin-sensitive Staphylococcus epidermidis 09-3 after 18 to 24 hrs by twofold serial dilution method
- Assay type: functional
API: value field is a number in µg/mL; no unit string.

* CCO/N=C(/N)C1CN(c2c(F)cc3c(=O)c(C(=O)O)cn(CCF)c3c2F)C/C1=N\OC (stereo not drawn) | 0.5
* CO/N=C1\CN(c2nc3c(cc2F)c(=O)c(C(=O)O)cn3-c2ccc(F)cc2F)CC1/C(N)=N\OC (stereo not drawn) | 0.5
* CCO/N=C1\CN(c2c(F)cc3c(=O)c(C(=O)O)cn(C4CC4)c3c2OC)CC1/C(N)=N\OCC (stereo not drawn) | 0.5
* CCO/N=C1\CN(c2c(F)cc3c(=O)c(C(=O)O)cn(C4CC4)c3c2F)CC1/C(N)=N\OC (stereo not drawn) | 0.25
* CCn1cc(C(=O)O)c(=O)c2cc(F)c(N3C/C(=N\OC)C(/C(N)=N\O)C3)c(F)c21 (stereo not drawn) | 0.25

(Q) Suppose we examine the molecule CO/N=C1\CN(c2c(F)cc3c(=O)c(C(=O)O)cn4c3c2OC[C@@H]4C)CC1/C(N)=N\OC (stereo partly drawn) ; what MIC value has been reported?
(A) 0.25

(Q) Same for CO/N=C1\CN(c2c(F)cc3c(=O)c(C(=O)O)cn(CCF)c3c2F)CC1/C(N)=N\O (stereo not drawn)
(A) 0.5

----------
- System: Enterococcus faecium
- Assay Protocol: Antibacterial activity against Enterococcus faecium 08-7 after 18 to 24 hrs by twofold serial dilution method
- Type: functional
Entries and their measured MIC follow.

These recorded examples may help you get a feel for the data.
* CO/N=C1\CN(c2c(F)cc3c(=O)c(C(=O)O)cn(CCF)c3c2F)CC1/C(N)=N\O (centres undefined) | > 128 µg/mL
* CCO/N=C1\CN(c2c(F)cc3c(=O)c(C(=O)O)cn(C4CC4)c3c2OC(F)F)CC1/C(N)=N\O (centres undefined) | > 128 µg/mL
* CCO/N=C(/N)C1CN(c2c(F)cc3c(=O)c(C(=O)O)cn(CCF)c3c2F)C/C1=N\OC (centres undefined) | > 128 µg/mL
* CCO/N=C1\CN(c2c(F)cc3c(=O)c(C(=O)O)cn(CC)c3c2F)CC1/C(N)=N\OC (centres undefined) | > 128 µg/mL
* CCn1cc(C(=O)O)c(=O)c2cc(F)c(N3C/C(=N\OC)C(/C(N)=N\OC)C3)c(F)c21 (centres undefined) | > 128 µg/mL
* CCn1cc(C(=O)O)c(=O)c2cc(F)c(N3C/C(=N\OC)C(/C(N)=N\O)C3)c(F)c21 (centres undefined) | > 128 µg/mL
* CCO/N=C1\CN(c2nc3c(cc2F)c(=O)c(C(=O)O)cn3C2CC2)CC1/C(N)=N\O (centres undefined) | > 128 µg/mL
* CCO/N=C1\CN(c2c(F)cc3c(=O)c(C(=O)O)cn(C4CC4)c3c2OC)CC1/C(N)=N\OCC (centres undefined) | 64 µg/mL

Then this compound:
(Q) Suppose we examine the compound CCO/N=C1\CN(c2c(F)cc3c(=O)c(C(=O)O)cn(C4CC4)c3c2OC)CC1/C(N)=N\OC (centres undefined) ; what MIC value has been reported?
(A) > 128 µg/mL

----------
Entries and their measured MIC follow.
- System: Staphylococcus epidermidis
- Assay Protocol: Antibacterial activity against methicillin-resistant Staphylococcus epidermidis 09-3 after 18 to 24 hrs by twofold serial dilution method
- Format: functional
API: value field is a number in µg/mL; no unit string.

(Q) Suppose we examine the compound CCO/N=C1\CN(c2c(F)cc3c(=O)c(C(=O)O)cn(CC)c3c2F)CC1/C(N)=N\O (stereo not given) ; what MIC value has been reported?
(A) 0.25

(Q) Same for CCO/N=C1\CN(c2c(F)cc3c(=O)c(C(=O)O)cn(CC)c3c2F)CC1/C(N)=N\OC (stereo not given)
(A) 0.25

(Q) Same for CCO/N=C(/N)C1CN(c2nc3c(cc2F)c(=O)c(C(=O)O)cn3C2CC2)C/C1=N\OC (stereo not given)
(A) 0.25

(Q) Same for CCO/N=C1\CN(c2c(F)cc3c(=O)c(C(=O)O)cn(C4CC4)c3c2OC(F)F)CC1/C(N)=N\OCC (stereo not given)
(A) 64

(Q) Same for CCO/N=C(/N)C1CN(c2nc3c(cc2F)c(=O)c(C(=O)O)cn3-c2ccc(F)cc2F)C/C1=N\OC (stereo not given)
(A) 0.25

----------
- Test system: Enterococcus faecium
- Assay Protocol: Antibacterial activity against Enterococcus faecium 08-7 after 18 to 24 hrs by twofold serial dilution method
- Format: functional
Entries and their measured MIC follow.

These recorded examples may help you get a feel for the data.
• CO/N=C1\CN(c2c(F)cc3c(=O)c(C(=O)O)cn(C4CC4)c3c2OC)CC1/C(N)=N\OC (stereo not given) = > 128 µg/mL
• CCO/N=C1\CN(c2c(F)cc3c(=O)c(C(=O)O)cn(CCF)c3c2F)CC1/C(N)=N\O (stereo not given) = > 128 µg/mL
• CCO/N=C1\CN(c2c(F)cc3c(=O)c(C(=O)O)cn(CCF)c3c2F)CC1/C(N)=N\OC (stereo not given) = > 128 µg/mL
• CCO/N=C1\CN(c2c(F)cc3c(=O)c(C(=O)O)cn(C4CC4)c3c2OC(F)F)CC1/C(N)=N\OC (stereo not given) = 64 µg/mL
• CCO/N=C(/N)C1CN(c2c(F)cc3c(=O)c(C(=O)O)cn4c3c2OC[C@@H]4C)C/C1=N\OC (stereo not given in full) = 0.06 µg/mL
• CCO/N=C1\CN(c2c(F)cc3c(=O)c(C(=O)O)cn(CC)c3c2F)CC1/C(N)=N\OCC (stereo not given) = > 128 µg/mL
• CCO/N=C(/N)C1CN(c2c(F)cc3c(=O)c(C(=O)O)cn(C4CC4)c3c2OC)C/C1=N\OC (stereo not given) = > 128 µg/mL
• CCO/N=C1\CN(c2c(F)cc3c(=O)c(C(=O)O)cn(C4CC4)c3c2F)CC1/C(N)=N\OC (stereo not given) = 0.25 µg/mL
• CCO/N=C1\CN(c2c(F)cc3c(=O)c(C(=O)O)cn(C4CC4)c3c2OC(F)F)CC1/C(N)=N\OCC (stereo not given) = > 128 µg/mL

Then this compound:
(Q) Which measured MIC belongs to CCO/N=C1\CN(c2c(F)cc3c(=O)c(C(=O)O)cn(CC)c3c2F)CC1/C(N)=N\O (stereo not given) , tested on Enterococcus faecium?
(A) > 128 µg/mL
